molecular target: human MRGPR X4 (Homo sapiens); construct: expressed in transfected cells; assay: MRGPR X4 antagonist activity, IP-One Gq HTRF assay in stably transfected HEK cells; format: cell-based; conditions: versus 20 μM deoxycholic acid agonist; HEK cells expressing human MRGPR X4; read-out: MRGPRX4 Antagonist Activity
Sequence (Q96LA9 whole entry): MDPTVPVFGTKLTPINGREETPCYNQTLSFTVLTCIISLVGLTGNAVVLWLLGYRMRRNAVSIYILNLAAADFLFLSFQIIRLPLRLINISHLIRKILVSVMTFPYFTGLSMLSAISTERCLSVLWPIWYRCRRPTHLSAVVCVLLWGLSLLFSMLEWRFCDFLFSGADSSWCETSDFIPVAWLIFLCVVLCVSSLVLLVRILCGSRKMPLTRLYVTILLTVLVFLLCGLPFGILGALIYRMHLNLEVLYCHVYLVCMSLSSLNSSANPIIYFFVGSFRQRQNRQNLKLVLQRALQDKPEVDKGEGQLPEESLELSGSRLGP
metricName: IC50

>>> df
                                smilesrecord           result
 0       Cc1cc(Cl)ccc1Cn1nc(C(=O)O)c2ccccc21        > 2500 nM
 1  O=C(NS(=O)(=O)c1ccccc1F)c1nn(Cc2ccc(OC(F)F)cc2)c2ccccc12  1000 to 2500 nM
 2  O=C(CS(=O)(=O)c1cn(Cc2ccc(Cl)cc2)c2ccccc12)Nc1ccc(Cl)cc1Cl  1000 to 2500 nM
 3  COc1cccc(NC(=O)CS(=O)(=O)c2cn(Cc3ccc(Cl)cc3)c3ccccc23)c1    100 to 500 nM
 4  O=C(CS(=O)(=O)c1cn(Cc2ccc(Cl)cc2)c2ccccc12)Nc1ccccc1   501 to 1000 nM
 5  O=C(NCC1CCS(=O)(=O)CC1)c1nn(Cc2ccc(Cl)cc2)c2ccccc12        > 2500 nM
 6  Cc1cccc(NC(=O)CS(=O)(=O)c2cn(CCN3CCC(F)(F)C3)c3ccccc23)c1  1000 to 2500 nM
 7  O=C(NS(=O)(=O)c1ccccc1C(F)(F)F)c1nn(Cc2ccc(OC(F)F)cc2)c2ccccc12   501 to 1000 nM
 8  O=C(CCn1nc(C(=O)NCCc2nnc3ccccn23)c2ccccc21)c1ccc(F)cc1        > 2500 nM
 9  Cc1ccc(CS(=O)(=O)NC(=O)c2nn(Cc3ccc(Cl)cc3)c3ccccc23)cc1   501 to 1000 nM
10      O=C(O)c1nn(Cc2ccc(Cl)cc2Cl)c2ccccc12  1000 to 2500 nM
11  COc1ccc(S(=O)(=O)NC(=O)c2nn(Cc3ccc(OC(F)F)cc3)c3ccccc23)cc1C  1000 to 2500 nM
12  O=C(NS(=O)(=O)c1ccc(Cl)cc1Cl)c1nn(Cc2ccc(OC(F)F)cc2)c2ccccc12  1000 to 2500 nM
13  O=C(NCC1(c2cccnc2)CC1)c1cn(Cc2ccc(Cl)cc2)c2ccccc12        > 2500 nM
14  Cc1ccccc1S(=O)(=O)NC(=O)c1cn(Cc2ccc(OC(F)F)cc2)c2ccccc12  1000 to 2500 nM
15  Cc1cc(F)cc(S(=O)(=O)NC(=O)c2nn(Cc3ccc(OC(F)F)cc3)c3ccccc23)c1  1000 to 2500 nM
16  CS(=O)(=O)NCCNC(=O)c1nn(Cc2ccc(Cl)cc2)c2ccccc12        > 2500 nM
